- Test Description: PhoP promoter GFP reporter reduction in Typhi – purified and synthesized compounds, set 2, PhoP regulon inhibitor project, dose response (AID 2839)
- Condition Set: Salmonella Typhi PhoP-promoter GFP reporter, low Mg2+, 4 h; at 150 µM (top of the series)
Measure Name: inhibition (%)
Just the number in %, nothing appended.

Answered cases to consult:
S=C(NCc1ccc(Cl)cc1)Nc1ccc(Cl)cc1 : 22.4
Cc1ccc(NC(=S)NCc2ccc(Cl)cc2)cc1 : 13.6
Fc1ccccc1NC(=S)NCc1ccc(Cl)cc1 : -0.65

Requested field: inhibition. Item: Cc1cccc(NC(=S)NCc2ccc(Cl)cc2)c1
16.8

So what's the measured inhibition for this one? S=C(NCc1ccc(Cl)cc1)Nc1cccc(Cl)c1
29.4

Give its inhibition value. Item: COc1cccc(NC(=S)NCc2ccc(Cl)cc2)c1
-3.63

What value of inhibition has been recorded for this entry: O=C(Nc1ccccc1Cl)N1CCCN(Cc2ccccc2F)C1
16.8
